Data origin: ChEMBL document CHEMBL4673219

Test: Cmax in Sprague-Dawley rat at 10 mg/kg, po measured up to 24 hrs by LC-MS/MS analysis
Format: ADME, organism-based
Parameters: route oral, dose 10 mg/kg, time <=24
Conditions: in vivo
valueType: Cmax (ng/mL)
Numeric answer only, unit ng/mL assumed.

For this compound ( "CCCCCCCC(=O)Nc1nc2[nH]c(CN3CCN(Cc4cccc(F)c4)CC3)c(CN3CCN(Cc4cccc(F)c4)CC3)c2c(=O)[nH]1" ), measured Cmax is 10

====

Assay: AUC (0 to infinity) in Sprague-Dawley rat at 10 mg/kg, iv measured up to 24 hrs by LC-MS/MS analysis
Format: ADME, organism-based
Set-up: route intravenous, dose 10 mg/kg, time <=24
Conditions: in vivo
valueType: AUC(0-inf) (ng·h/mL)
Numeric answer only, unit ng·h/mL assumed.

For this compound ( "CCCCCCCC(=O)Nc1nc2[nH]c(CN3CCN(Cc4cccc(F)c4)CC3)c(CN3CCN(Cc4cccc(F)c4)CC3)c2c(=O)[nH]1" ), measured AUC(0-inf) is 498
